EXPERIMENTAL DETAILS: NCI Yeast Anticancer Drug Screen. Data for the rad50 strain (AID 155);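 note: 0% = growth of vehicle-only cultures of the same strain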
DETAILS: S. cerevisiae rad50 strain growth inhibition; at 50.0 µM (retest, dose inferred, filed as 5.0); stronger effect = higher value
Experimental: Growth inhibition of yeast strains with defined genetic alterations is measured as a screen for potential anti-cancer activity. Selected strains with alterations in DNA damage repair or cell cycle control were exposed to compounds and growth inhibition was measured relative to vehicle treated controls. The strain used in this assay is rad50
About 79,000 compounds went through this panel and 15% of them were active in at least one assay; those are over-represented in the sample as a whole. Active and inactive are the calls of the source. Cut-off read from the data, not from the text of the source: active = growth inhibition above about 70%; inactive = the rest.
Record form. Attribute: growth inhibition. Fill in for each entry.

**Q:** Tell me the measured growth inhibition of Cc1cc(S(=O)(=O)Nc2nc(N)nc(N(C)C)n2)c(SC(C(=O)O)c2ccccc2)cc1Cl (centres undefined) , please.
**A:** -4% (inactive)

**Q:** // query: `[N-]=[N+]=NC1=C(C(=O)c2ccccc2)C(=O)c2cccc3cccc1c23`
**A:** 18% (inactive)

**Q:** // query: `O=c1c2cc3c(cc2c2cccc4c2n1CCC4)OCO3`
**A:** 44% (inactive)

**Q:** // query: `Nc1ccc(O)c(=O)cc1`
**A:** 1% (inactive)

**Q:** // query: `CN(C)/C(N)=N\c1nc2ccc(Cl)cc2s1`
**A:** 15% (inactive)

**Q:** // query: `OCCOc1ccc2ccccc2c1-c1c(OCCOc2ccc3ccccc3c2-c2c(OCCO)ccc3ccccc23)ccc2ccccc12`
**A:** 22% (inactive)

**Q:** // query: `Oc1ccccc1C1CCCCC1`
**A:** 38% (inactive)

**Q:** // query: `CCNc1cc(N)[n+](CC)c2n[nH]c(/N=C/c3cc(Cl)cc(Cl)c3O)c12`
**A:** 80% (active)

**Q:** // query: `O=C(O)C(SC1=NNC2(C(=O)N1)c1ccccc1-c1ccccc12)SC1=NNC2(C(=O)N1)c1ccccc1-c1ccccc12`
**A:** 96% (active)

**Q:** // query: `CC1(c2ccc3ccccc3c2)C(C#N)(C#N)C1(C#N)C#N`
**A:** 92% (active)

**Q:** // query: `COc1ccc(/C=C2\CN(C)C/C(=C\c3ccc(OC)c(OC)c3OC)C2=O)c(OC)c1OC`
**A:** 96% (active)

**Q:** // query: `CCCCCCCCCc1cc(O)c(O)cc1CCCCCCCCC`
**A:** 80% (active)

**Q:** // query: CCCCCC1OC1CC1OC1CCCCCCCC(=O)OC (centres undefined)
**A:** 1% (inactive)

**Q:** // query: CC1(CO)CCCC2(C)C3=C(CCCC3)CCC12 (centres undefined)
**A:** 94% (active)

**Q:** // query: `Cc1ccccc1CN(C)CCO`
**A:** -8% (inactive)

**Q:** // query: O=C(CC1C=Cc2ccccc2N1C(=O)c1ccccc1)c1ccccc1 (centres undefined)
**A:** 85% (active)

**Q:** // query: `CC(=O)Oc1cccc2c(C(=O)CCl)ccnc12`
**A:** 99% (active)

**Q:** // query: `Cc1ccc2c(c1)SSc1ccc(C)cc1SS2`
**A:** 92% (active)

**Q:** // query: `CC(C)OP(=O)(CCCCCCCCC/C=C/c1ccc2c(c1)OCCOCCOCCOCCO2)OC(C)C`
**A:** 98% (active)

**Q:** // query: `COc1ccc(/C(C#N)=C/c2ccncc2)cc1`
**A:** 28% (inactive)

**Q:** // query: `OC(C/C=N/Nc1ccccc1)(C(F)(F)Cl)C(F)(F)Cl`
**A:** 97% (active)

**Q:** // query: `Oc1ccc[nH]c1=S`
**A:** 18% (inactive)

**Q:** // query: CC(C)=CCC(OC(=O)CC(C)C)C1=CC(=O)c2c(O)ccc(O)c2C1=O (centres undefined)
**A:** 99% (active)

**Q:** // query: `O=C(CBr)C1(Br)CCN(Cc2ccccc2)CC1`
**A:** 99% (active)

**Q:** // query: `O=C(O)/C=C/C(=O)c1ccc(O)cc1`
**A:** 97% (active)

**Q:** // query: `Cc1ccc2nc(C[n+]3cccc4ccccc43)ccc2c1`
**A:** 99% (active)

**Q:** // query: `O=C(CCCl)Nc1cc2ccccc2oc1=O`
**A:** -19% (inactive)

**Q:** // query: `C[N+](C)(CCCCCCOc1c(Br)cc(Br)cc1Br)Cc1ccc(Br)o1`
**A:** 99% (active)

**Q:** // query: `CC(=O)OC1=C(Br)CCc2ccccc21`
**A:** 99% (active)

**Q:** // query: CC1=NN(C(=O)c2ccncc2)C(=O)C1N=Nc1ccc(C)c([N+](=O)[O-])c1 (centres undefined)
**A:** 61% (inactive)

**Q:** // query: `CCCNC(=O)C(=O)NNc1ccccc1`
**A:** 64% (inactive)

**Q:** // query: CC(=O)CC1(O)C(=O)Nc2ccc(Br)cc21 (centres undefined)
**A:** -2% (inactive)

**Q:** // query: `C/C=C/C=C1\C=Cc2c(C(=O)OC)coc(=O)c21`
**A:** 85% (active)

**Q:** // query: COc1cc(C(c2cc3c(cc2O)OCO3)N2CCOCC2)ccc1O (centres undefined)
**A:** 25% (inactive)

**Q:** // query: `CNc1c(C(=O)Nc2ccccc2)c(=O)n(C)c(=O)n1C`
**A:** 99% (active)

**Q:** // query: O=CNC(CCCC(=O)O)Cc1cc2ccccc2c2ccccc12 (centres undefined)
**A:** 17% (inactive)

**Q:** // query: `Cc1ccc(C(=O)C(F)(F)F)cc1`
**A:** -138% (inactive)

**Q:** // query: `O=C(C1=Cc2ccccc2OC1)N1CCN(c2cccc(Cl)c2)CC1`
**A:** 96% (active)

**Q:** // query: `CC(=O)Oc1cc2c(=O)oc3c(OC(C)=O)c(OC(C)=O)c(OC(C)=O)c4c(=O)oc(c1OC(C)=O)c2c34`
**A:** 58% (inactive)

**Q:** // query: CC1=CC(=O)CC(c2ccccc2)C1 (centres undefined)
**A:** 98% (active)

**Q:** // query: `Cc1ccc2sc(=S)sc2c1`
**A:** 32% (inactive)

**Q:** // query: `O=[N+]([O-])c1cccc2c[n+](Cc3ccccc3)ccc12`
**A:** 24% (inactive)

**Q:** // query: `Cc1cc(N/N=C/c2ccc([N+](=O)[O-])o2)c2cc3c(cc2n1)OCO3`
**A:** 99% (active)

**Q:** // query: `NNC(=O)c1ccc(N)cc1O`
**A:** -5% (inactive)

**Q:** // query: `NC(=O)N/N=C/c1ccc(Cl)s1`
**A:** 42% (inactive)

**Q:** // query: `CC(C)(Br)C(=O)c1ccc([N+](=O)[O-])o1`
**A:** 99% (active)

**Q:** // query: CC/C(C)=C1\CCC(CN2CCOCC2)C1=O (centres undefined)
**A:** 61% (inactive)

**Q:** // query: `COc1c(I)cc(I)c(O)c1I`
**A:** 39% (inactive)

**Q:** // query: `Oc1ccc(Br)cc1-c1nc2cc(Cl)c(Cl)cc2nc1-c1cc(Br)ccc1O`
**A:** 80% (active)

The origin of these recorded values is PubChem BioAssay (NCI).
